B1: ZBED1 (parent)
chain: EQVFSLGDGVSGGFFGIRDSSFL

Variants of: B1
Test: protein stability index of a GFP-peptide fusion (GPS, HEK-293T) (PSI 1-6); higher = more stable;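 also: lentivirally expressed fusions sorted by FACS into six bins by GFP to DsRed ratio, PSI derived from sequencing read proportions per bin multiplied by bin number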
Settings: c terminus: native
Listed here: items and their measured protein stability index.
Form: value (number only, do not type unit).

S5A 2.98

Name the recorded protein stability index of the item G9K in your answer.
2.99

Name the recorded protein stability index of the item G12H in your answer.
3.01
